All values here come from the Immune Epitope Database (IEDB).

Target: HLA-A*02:01
Test: IEDB peptide-MHC binding, purified MHC/competitive/fluorescence; filed as Kd, often an IC50 or EC50 that approximates it; bounds were set here for any values at or beyond the usual limits of such assays
Conditions: source organism: Yersinia pestis Nepal516
pKd: −log10 of the molar value.
quantity: pKd

monomer_sequence=AQRELFFTL measured_result=5.89

----------
Target: HLA-B*15:01
Test: IEDB peptide-MHC binding, purified MHC/direct/fluorescence; filed as Kd, often an IC50 or EC50 that approximates it; bounds were set here for any values at or beyond the usual limits of such assays
Details: source organism: Salmonella enterica
quantity: Kd

monomer_sequence=QTDDGVRFT measured_result="≥ 20 µM"

----------
Target: HLA-A*69:01
Assay: IEDB peptide-MHC binding, purified MHC/direct/fluorescence; filed as Kd, often an IC50 or EC50 that approximates it; bounds were set here for any values at or beyond the usual limits of such assays
Details: source organism: Orthohantavirus andesense
quantity: Kd

monomer_sequence=YLQAKSQVL system_under_test=HLA-A*69:01 quantity=Kd measured_result="≥ 20 µM"

----------
Biological target: HLA-A*24:02
Assay: IEDB peptide-MHC binding, purified MHC/direct/fluorescence; filed as Kd, often an IC50 or EC50 that approximates it; bounds were set here for any values at or beyond the usual limits of such assays
Settings: source organism: Escherichia coli O157:H7
quantity: Kd

monomer_sequence=LLKLWIDKV measured_result="≥ 20 µM"

----------
Recorded Kd, one value per entry.
Molecular target: HLA-A*02:01
Assay: IEDB peptide-MHC binding, purified MHC/direct/fluorescence; filed as Kd, often an IC50 or EC50 that approximates it; bounds were set here for any values at or beyond the usual limits of such assays
Conditions: source organism: Rickettsia prowazekii
quantity: Kd (nM)

monomer_sequence=FGSGWTWVV quantity=Kd operator== measured_result=669
monomer_sequence=VVGKPYKEV quantity=Kd operator== measured_result=1960
monomer_sequence=YGGKKAVTY quantity=Kd operator=≥ measured_result=20000

----------
Target: HLA-A*24:02
Experiment: IEDB peptide-MHC binding, purified MHC/competitive/fluorescence; bounds were set here for any values at or beyond the usual limits of such assays
Conditions: source organism: Zaire ebolavirus
pIC50: −log10 of the molar value.
Given measured pIC50, output Y if it is greater than or equal to 5 and N if not.

monomer_sequence=SYGEYQSYS class_assignment=N
monomer_sequence=FSILNRKAI class_assignment=Y
monomer_sequence=LESGAVKYL class_assignment=N
monomer_sequence=VRQRVIPVY class_assignment=N
monomer_sequence=SFEEMYRHI class_assignment=Y
monomer_sequence=TTIRYQATG class_assignment=N
monomer_sequence=RVIPVYQVN class_assignment=N
monomer_sequence=IIHDFVDKT class_assignment=N
monomer_sequence=QQTNAMVTL class_assignment=N
monomer_sequence=KFLLIHQGM class_assignment=Y
monomer_sequence=FRFEVKKRD class_assignment=N
monomer_sequence=RFEVKKRDG class_assignment=N
monomer_sequence=VHSQGREAA class_assignment=Y
monomer_sequence=KIRSEELSF class_assignment=N

----------
Target: HLA-B*44:02
Experiment: IEDB peptide-MHC binding, purified MHC/direct/fluorescence; filed as Kd, often an IC50 or EC50 that approximates it; bounds were set here for any values at or beyond the usual limits of such assays
Conditions: source organism: Rickettsia prowazekii
quantity: Kd

monomer_sequence=YGGKKAVTY system_under_test=HLA-B*44:02 quantity=Kd measured_result="≥ 20 µM"

----------
Target: HLA-B*58:01
Assay: IEDB peptide-MHC binding, purified MHC/competitive/radioactivity; filed as Kd, often an IC50 or EC50 that approximates it; bounds were set here for any values at or beyond the usual limits of such assays
Conditions: source organism: Dengue virus 1 Brazil/97-11/1997
quantity: Kd (nM)

monomer_sequence=ERSWNSGYDW quantity=Kd readout_units=nM measured_result=95.6

----------
Molecular target: HLA-B*15:17
Assay: IEDB peptide-MHC binding, purified MHC/competitive/fluorescence; filed as Kd, often an IC50 or EC50 that approximates it; bounds were set here for any values at or beyond the usual limits of such assays
Conditions: source organism: Mycobacterium tuberculosis variant bovis BCG str. Pasteur 1173P2
pKd: −log10 of the molar value.
quantity: pKd

monomer_sequence=RLAPEPVYT quantity=pKd measured_result="≤ 4.70"

----------
Target: HLA-C*06:02
Assay: IEDB peptide-MHC binding, purified MHC/direct/fluorescence; filed as Kd, often an IC50 or EC50 that approximates it; bounds were set here for any values at or beyond the usual limits of such assays
Details: source organism: Salmonella enterica
pKd: −log10 of the molar value.
quantity: pKd

monomer_sequence=YRYISFLVL measured_result=6.19

----------
Recorded pKd, one value per entry.
Molecular target: HLA-B*44:03
Test: IEDB peptide-MHC binding, purified MHC/competitive/radioactivity; filed as Kd, often an IC50 or EC50 that approximates it; bounds were set here for any values at or beyond the usual limits of such assays
Conditions: source organism: SARS coronavirus Tor2
pKd: −log10 of the molar value.
quantity: pKd

monomer_sequence=YEQYIKWPWY system_under_test=HLA-B*44:03 operator== measured_result=6.92
monomer_sequence=AEMDGIQYG system_under_test=HLA-B*44:03 operator== measured_result=7.86
monomer_sequence=TEKSNVVRG system_under_test=HLA-B*44:03 operator=≤ measured_result=4.11

----------
Recorded pKd, one value per entry.
Molecular target: HLA-A*11:01
Experiment: IEDB peptide-MHC binding, purified MHC/direct/fluorescence; filed as Kd, often an IC50 or EC50 that approximates it; bounds were set here for any values at or beyond the usual limits of such assays
Conditions: source organism: Giardia lamblia ATCC 50803
pKd: −log10 of the molar value.
quantity: pKd

monomer_sequence=FMKVKFEAL measured_result="≤ 4.70"
monomer_sequence=AEFPVGSTA measured_result="≤ 4.70"
monomer_sequence=RHIAIQVCY measured_result="≤ 4.70"

----------
Target: HLA-A*02:03
Assay: IEDB peptide-MHC binding, purified MHC/competitive/radioactivity; filed as Kd, often an IC50 or EC50 that approximates it; bounds were set here for any values at or beyond the usual limits of such assays
Settings: source organism: Vaccinia virus WR
Recorded Kd, one value per entry.
quantity: Kd (nM)

monomer_sequence=NLVQYRILPM readout_units=nM operator== measured_result=1330
monomer_sequence=QVLQQNNSFI readout_units=nM operator== measured_result=3180
monomer_sequence=DIVSDSKKIM readout_units=nM operator=≥ measured_result=57200
monomer_sequence=DTGKKELALT readout_units=nM operator== measured_result=262
monomer_sequence=EAFETQSGA readout_units=nM operator=≥ measured_result=78100
monomer_sequence=VTTNNLLEQL readout_units=nM operator== measured_result=17900
monomer_sequence=SISEINEWL readout_units=nM operator== measured_result=1.84
monomer_sequence=ITETIPIGM readout_units=nM operator=≥ measured_result=42800
monomer_sequence=TAYIGTSNWT readout_units=nM operator== measured_result=1050
monomer_sequence=YIPPCQCTV readout_units=nM operator== measured_result=445
monomer_sequence=GTGILFMEM readout_units=nM operator== measured_result=7730
monomer_sequence=KINEMVDELV readout_units=nM operator== measured_result=492

----------
Target: HLA-A*11:01
Assay: IEDB peptide-MHC binding, purified MHC/competitive/radioactivity; filed as Kd, often an IC50 or EC50 that approximates it; bounds were set here for any values at or beyond the usual limits of such assays
Conditions: source organism: SARS coronavirus Tor2
pKd: −log10 of the molar value.
Recorded pKd, one value per entry.
quantity: pKd

monomer_sequence=TQVLKTMSLY measured_result=5.57
monomer_sequence=FVASFRLFAR measured_result=7.30
monomer_sequence=VTYVPSQER measured_result=6.05
monomer_sequence=KFTTSLSLHK measured_result=6.87
monomer_sequence=VLCNSQTSLR measured_result=5.73

----------
Molecular target: HLA-A*11:01
Assay: IEDB peptide-MHC binding, purified MHC/competitive/radioactivity; filed as Kd, often an IC50 or EC50 that approximates it; bounds were set here for any values at or beyond the usual limits of such assays
Details: source organism: Vaccinia virus WR
quantity: Kd

monomer_sequence=DIICEDAMY system_under_test=HLA-A*11:01 quantity=Kd measured_result="≥ 77.9 µM"
monomer_sequence=WLSSKGLACY system_under_test=HLA-A*11:01 quantity=Kd measured_result="≥ 28.9 µM"
monomer_sequence=NFFTELENKK system_under_test=HLA-A*11:01 quantity=Kd measured_result="≥ 32.3 µM"
monomer_sequence=QLDEKSSIK system_under_test=HLA-A*11:01 quantity=Kd measured_result="0.51 µM"
monomer_sequence=EIITGNKVK system_under_test=HLA-A*11:01 quantity=Kd measured_result="1.2 µM"
monomer_sequence=LTIKDSSNK system_under_test=HLA-A*11:01 quantity=Kd measured_result="0.0149 µM"
monomer_sequence=YLRNYMVIK system_under_test=HLA-A*11:01 quantity=Kd measured_result="0.897 µM"
monomer_sequence=DLIVTFRER system_under_test=HLA-A*11:01 quantity=Kd measured_result="8.14 µM"
monomer_sequence=IITPVVFYR system_under_test=HLA-A*11:01 quantity=Kd measured_result="0.000322 µM"
monomer_sequence=AITPTIEDDK system_under_test=HLA-A*11:01 quantity=Kd measured_result="0.115 µM"
monomer_sequence=WFLKSGAVVK system_under_test=HLA-A*11:01 quantity=Kd measured_result="0.116 µM"
monomer_sequence=KSKNINIEVK system_under_test=HLA-A*11:01 quantity=Kd measured_result="0.568 µM"
monomer_sequence=GLTTHCTKLR system_under_test=HLA-A*11:01 quantity=Kd measured_result="4.63 µM"
